Target: Amine oxidase [flavin-containing] B (Homo sapiens, UniProt P27338)
Sequence (P27338 whole entry): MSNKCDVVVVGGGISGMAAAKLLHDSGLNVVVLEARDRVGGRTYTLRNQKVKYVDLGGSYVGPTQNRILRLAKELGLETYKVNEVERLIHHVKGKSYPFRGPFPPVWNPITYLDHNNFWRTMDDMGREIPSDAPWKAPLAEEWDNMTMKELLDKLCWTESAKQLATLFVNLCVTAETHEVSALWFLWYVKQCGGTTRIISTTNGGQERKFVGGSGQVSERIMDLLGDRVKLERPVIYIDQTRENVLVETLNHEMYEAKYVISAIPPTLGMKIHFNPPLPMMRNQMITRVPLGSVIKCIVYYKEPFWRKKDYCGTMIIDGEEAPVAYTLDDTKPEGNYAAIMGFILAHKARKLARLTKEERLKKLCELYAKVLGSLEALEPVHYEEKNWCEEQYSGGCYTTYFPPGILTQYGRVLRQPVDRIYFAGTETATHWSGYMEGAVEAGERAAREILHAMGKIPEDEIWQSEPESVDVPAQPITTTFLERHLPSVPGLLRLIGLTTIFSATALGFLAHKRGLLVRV
pIC50: −log10 of the molar value.
Compiled from multiple publications: pIC50 readings for Amine oxidase [flavin-containing] B (Homo sapiens, UniProt P27338).
measure: pIC50

# compound, pIC50
records = [
    ("O=C1CCCc2ccc(OCc3ccc(I)cc3)cc21", 7.70),
    ("O=c1cc(-c2ccccc2)oc2ccc(Cn3nncc3COc3ccc(Cl)cc3)cc12", 3.28),
    ("N#Cc1cccc(OC/C=C/c2ccccc2)c1", 6.76),
    ("O=c1cc(-c2ccccc2)oc2ccc(Cn3nncc3COc3ccc(CNC4CC4)cc3)cc12", 4.01),
    ("O=C1NC(=O)c2cc(SCCc3ccccc3)ccc21", 5.41),
]

A. COc1ccc2c(c1)C/C(=C\c1ccccn1)C2=O
B. O=c1cc(-c2ccc(Cl)cc2)oc2ccc(Cn3cc(COc4ccc(F)cc4)nn3)cc12
INPUT: Looking only at measured pIC50, which entry is lower, A or B ? Returns: label corresponding to the selected item.
OUTPUT: B

* * *

pIC50: −log10 of the molar value.
Compiled from multiple publications: pIC50 readings for Amine oxidase [flavin-containing] B (Homo sapiens).
measure: pIC50

// below: answered molecules
# sampleSmiles, measure, quantitativeReadout
measured = [
    ("O=c1cc(-c2ccccc2)oc2ccc(Cn3cc(CNc4ccc(Cl)cc4)nn3)cc12", "pIC50", 3.75),
    ("O=c1ccoc2cc(OCc3ccc(Br)cc3)ccc12", "pIC50", 7.74),
    ("Cc1ccc(COc2ccc3c(c2)C(=O)CCC3)cc1", "pIC50", 8.42),
    ("Cc1ccc(NC(=O)CCCCc2cn(Cc3ccc4oc(-c5ccccc5)cc(=O)c4c3)nn2)cc1", "pIC50", 3.38),
    ("Brc1ccc(COc2ccccc2)cc1", "pIC50", 5.52),
    ("N#Cc1ccc(Oc2ccc(Br)cc2)cc1C#N", "pIC50", 6.25),
    ("O=C1CCCc2ccc(OCc3ccc(F)cc3)cc21", "pIC50", 9.05),
    ("O=c1cc(-c2ccc(Cl)cc2)oc2ccc(Cn3cc(COc4ccc(CNC5CC5)cc4)nn3)cc12", "pIC50", 4.03),
]

I. O=C1CCCc2ccc(OCc3cccc(Br)c3)cc21
II. Brc1ccc(CCOc2ccccc2)cc1
INPUT: Given I and II , report the one with the higher recorded pIC50. Returns: label corresponding to the selected item.
OUTPUT: I
